# ASSAYED SYSTEM: hS1P2 (Homo sapiens)
# Construct: expressed in transfected cells
# Sequence (O95136 whole entry): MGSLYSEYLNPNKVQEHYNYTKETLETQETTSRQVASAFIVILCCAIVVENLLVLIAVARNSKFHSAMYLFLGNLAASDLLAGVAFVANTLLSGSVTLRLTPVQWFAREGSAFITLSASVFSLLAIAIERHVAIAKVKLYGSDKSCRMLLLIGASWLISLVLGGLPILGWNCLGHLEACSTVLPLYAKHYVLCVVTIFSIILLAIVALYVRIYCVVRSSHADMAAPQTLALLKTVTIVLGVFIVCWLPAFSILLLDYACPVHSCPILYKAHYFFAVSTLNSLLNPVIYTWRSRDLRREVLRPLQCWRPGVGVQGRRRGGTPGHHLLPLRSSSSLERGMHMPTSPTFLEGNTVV
# MEASUREMENT PROTOCOL: S1P receptor subtype selectivity, S1P-induced [Ca2+]i increase in CHO-K1 cells stably expressing S1P2 (Calcium3)
# Type: cell-based
# CONDITION: 10 μM; CHO-K1 stably expressing S1P2; S1P solution 100 nmol/L; Calcium3; read-out: Suppression rate at 10 μM (%) hS1P2
// values below are reported inhibition at 10 µM
READOUT KIND: inhibition at 10 µM (%)

# MOLECULE, READOUT KIND, UNITS, MEASURED
data = [
    ("CC(C)(C)C(=O)C(=NNc1ccc(F)cc1)Nc1ccc(F)cc1 [Compound 54]", "inhibition at 10 µM", "%", 16),
    ("O=C(C(=NNc1ccc(Cl)cc1)Nc1cccc(F)c1)N1CCCCC1 [Compound 21]", "inhibition at 10 µM", "%", 13.7),
    ("CCOC(=O)C(=NNc1ccc(Cl)cc1)Nc1ccccc1 [Compound 19]", "inhibition at 10 µM", "%", -8.6),
]

* * *

// values below are reported IC50
# ASSAYED SYSTEM: hS1P3 (Homo sapiens, UniProt Q99500)
# Sequence (Q99500 whole entry): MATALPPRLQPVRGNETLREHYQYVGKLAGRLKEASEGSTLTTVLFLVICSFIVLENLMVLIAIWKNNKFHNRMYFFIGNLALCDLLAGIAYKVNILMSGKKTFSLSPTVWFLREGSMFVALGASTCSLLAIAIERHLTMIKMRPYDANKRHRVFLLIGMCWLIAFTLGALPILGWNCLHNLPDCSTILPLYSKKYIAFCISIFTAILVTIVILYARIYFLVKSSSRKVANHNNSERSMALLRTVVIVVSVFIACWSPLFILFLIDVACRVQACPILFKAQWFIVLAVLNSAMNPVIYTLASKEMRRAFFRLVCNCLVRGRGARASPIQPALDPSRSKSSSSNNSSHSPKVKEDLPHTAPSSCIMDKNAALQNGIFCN
# MEASUREMENT PROTOCOL: Suppressive effect on S1P-induced increase in [Ca2+]i, CHO-K1 cells expressing S1P3 (Fura 2-AM), IC50
# CONDITION: S1P solution 50 nmol/L, read-out: hS1P3 suppression IC50
READOUT KIND: IC50 (nM)

# STRUCTURE SMILES, MEASURED
data = [
    ("O=C(C(=NNc1ccc(Cl)cc1)Nc1cccc(F)c1F)c1ccccc1", 14700),
    ("O=C(C(=NNc1ccc(Cl)cc1)Nc1cc(Cl)nc(Cl)c1)c1ccccc1", 2810),
    ("O=C(C(=NNc1ccc(Cl)cc1)Nc1cccc(F)c1)N1CCCCC1", 26800),
    ("CCC(CC)C(=O)C(=NNc1ccc(Cl)cc1)Nc1cccc(Cl)c1", 1590),
    ("C#Cc1cccc(NC(=NNc2ccc(Cl)c(Cl)c2)C(=O)C(C)(C)C)c1", 690),
    ("CC(C)(C)C(=O)C(=NNc1cccc(Cl)c1)Nc1ccc(Cl)cc1", 2890),
    ("O=C(C(=NNc1ccc(Cl)cc1)Nc1cccc(Cl)c1)c1ccccc1", 5340),
    ("COc1ccc(NC(=NNc2ccc(C#N)cc2)C(=O)C(C)(C)C)cc1", 14000),
    ("CCCCC(=O)C(=NNc1ccc(Cl)cc1)Nc1cccc(Cl)c1", 1990),
]

* * *

# ASSAYED SYSTEM: hS1P1 (Homo sapiens, UniProt P21453)
# Construct: expressed in transfected cells
# Sequence (P21453 whole entry): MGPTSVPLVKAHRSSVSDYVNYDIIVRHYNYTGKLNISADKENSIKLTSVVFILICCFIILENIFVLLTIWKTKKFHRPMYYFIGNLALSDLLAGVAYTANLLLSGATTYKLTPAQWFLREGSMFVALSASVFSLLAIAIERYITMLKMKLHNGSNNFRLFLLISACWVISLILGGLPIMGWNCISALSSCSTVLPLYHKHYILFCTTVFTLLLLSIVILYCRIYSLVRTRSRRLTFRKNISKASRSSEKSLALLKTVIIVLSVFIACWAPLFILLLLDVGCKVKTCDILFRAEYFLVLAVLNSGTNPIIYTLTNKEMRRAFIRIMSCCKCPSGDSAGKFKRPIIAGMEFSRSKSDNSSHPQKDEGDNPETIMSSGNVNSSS
# MEASUREMENT PROTOCOL: S1P receptor subtype selectivity, S1P-induced [Ca2+]i increase in CHO-K1 cells stably expressing S1P1 (Calcium3)
# Format: cell-based
# CONDITION: 10 μM; CHO-K1 stably expressing S1P1; S1P solution 100 nmol/L; Calcium3; read-out: Suppression rate at 10 μM (%) hS1P1
// values below are reported inhibition at 10 µM

# COMPOUND, ASSAYED SYSTEM, inhibition at 10 µM, %
records = [
    ("CC(C)(C)C(=O)C(=NNc1ccc(Br)cc1)Nc1ccc(Br)cc1 [Compound 76]", "hS1P1 (Homo sapiens, UniProt P21453)", 5.1),
    ("CC(C)(C)C(=O)C(=NNc1ccc(Br)cc1)Nc1ccc(Cl)c(Cl)c1 [Compound 80]", "hS1P1 (Homo sapiens, UniProt P21453)", 20.6),
    ("CC(C)(C)C(=O)C(=NNc1ccccc1)Nc1cccc(F)c1 [Compound 49]", "hS1P1 (Homo sapiens, UniProt P21453)", 6.6),
    ("CC(C)(C)CC(=O)C(=NNc1ccc(Cl)cc1)Nc1cccc(F)c1 [Compound 113]", "hS1P1 (Homo sapiens, UniProt P21453)", 5.9),
    ("CCOC(=O)C(=NNc1ccc(Cl)cc1)Nc1ccccc1 [Compound 19]", "hS1P1 (Homo sapiens, UniProt P21453)", -25.4),
    ("Cc1ccc(NN=C(Nc2ccc(Cl)c(Cl)c2)C(=O)C(C)(C)C)cc1 [Compound 65]", "hS1P1 (Homo sapiens, UniProt P21453)", 5.1),
    ("CCC(CC)C(=O)C(=NNc1ccc(Cl)cc1)Nc1ccc(F)cc1 [Compound 112]", "hS1P1 (Homo sapiens, UniProt P21453)", 22.1),
    ("O=C(C(=NNc1ccc(Cl)cc1)Nc1cccc(F)c1F)c1ccccc1 [Compound 3]", "hS1P1 (Homo sapiens, UniProt P21453)", 18.6),
    ("O=C(C(=NNc1ccc(Cl)cc1)Nc1cccc(F)c1)N1CCCCC1 [Compound 21]", "hS1P1 (Homo sapiens, UniProt P21453)", 17.5),
    ("CC(C)(C)C(=O)C(=NNc1ccccc1)Nc1ccc(Cl)c(Cl)c1 [Compound 52]", "hS1P1 (Homo sapiens, UniProt P21453)", 29.5),
    ("C#Cc1ccc(NN=C(Nc2cccc(F)c2)C(=O)C(C)(C)C)cc1 [Compound 131]", "hS1P1 (Homo sapiens, UniProt P21453)", 15.7),
    ("CC(C)(C)C(=O)C(=NNc1ccc(Cl)cc1)Nc1ccc(Br)cc1 [Compound 134]", "hS1P1 (Homo sapiens, UniProt P21453)", 36.4),
    ("Cc1ccc(NN=C(Nc2cccc(F)c2)C(=O)C(C)(C)C)cc1 [Compound 61]", "hS1P1 (Homo sapiens, UniProt P21453)", -2.9),
    ("CC(C)(C)C(=O)C(=NNc1ccc(Cl)c(Cl)c1)Nc1cccc(F)c1 [Compound 104]", "hS1P1 (Homo sapiens, UniProt P21453)", 28.3),
    ("CC(C)(C)C(=O)C(=NNc1ccc(F)cc1)Nc1cccc(F)c1 [Compound 53]", "hS1P1 (Homo sapiens, UniProt P21453)", 27.1),
    ("CC(C)(C)C(=O)C(=NNc1cccc(Cl)c1)Nc1cccc(F)c1 [Compound 41]", "hS1P1 (Homo sapiens, UniProt P21453)", 18.4),
    ("CCOC(=O)C(=NNc1ccc(Cl)cc1)Nc1cccc(F)c1 [Compound 13]", "hS1P1 (Homo sapiens, UniProt P21453)", 26.1),
    ("COc1ccc(NC(=NNc2ccc(F)cc2)C(=O)C(C)(C)C)cc1 [Compound 57]", "hS1P1 (Homo sapiens, UniProt P21453)", 11.5),
    ("CC(C)(C)C(=O)C(=NNc1ccc(Br)cc1)Nc1cccc(F)c1 [Compound 73]", "hS1P1 (Homo sapiens, UniProt P21453)", 5.1),
]

* * *

# ASSAYED SYSTEM: hS1P3 (Homo sapiens, UniProt Q99500)
# MEASUREMENT PROTOCOL: S1P receptor subtype selectivity, S1P-induced [Ca2+]i increase in CHO-K1 cells stably expressing S1P3 (Calcium3)
# Assay type: cell-based
# CONDITION: 10 μM; CHO-K1 stably expressing S1P3; S1P solution 50 nmol/L; Calcium3; read-out: Suppression rate at 10 μM (%) hS1P3
# Protocol: The selectivity to the S1P receptor subtype was examined in the following manner. […] A solution of the test compound was prepared by dissolving each of the test compounds in DMSO to a concentration of 10 mmol/L, and then diluting the solution with an HBSS (+) buffer solution to the predetermined concentration. […] A decrease in the measurement value for the test compound relative to the control was indicated as the suppression rate (%), from which the IC50 value was calculated.

# STRUCTURE SMILES, UNITS, inhibition at 10 µM
records = [
    ("CC(C)(C)C(=O)C(=NNc1ccc(Cl)cc1)Nc1ccc(Br)cc1", "%", 96.5),
    ("O=C(C(=NNc1ccc(Cl)cc1)Nc1cccc(F)c1F)c1ccccc1", "%", 68.5),
    ("CC(C)(C)C(=O)C(=NNc1ccc(F)cc1)Nc1ccc(F)cc1", "%", 101),
    ("CCC(CC)C(=O)C(=NNc1ccc(Cl)cc1)Nc1ccc(F)cc1", "%", 86.6),
    ("CC(C)(C)C(=O)C(=NNc1ccc(Br)cc1)Nc1ccc(F)cc1", "%", 105),
    ("CC(C)(C)C(=O)C(=NNc1ccc(C(F)(F)F)cc1)Nc1ccc(F)cc1", "%", 90.2),
    ("O=C(C(=NNc1ccc(Cl)cc1)Nc1cccc(F)c1)N1CCCCC1", "%", 91.1),
    ("CC(C)(C)C(=O)C(=NNc1ccc(Br)cc1)Nc1ccc(Br)cc1", "%", 103),
]

* * *

# ASSAYED SYSTEM: hS1P3 (Homo sapiens, UniProt Q99500)
# MEASUREMENT PROTOCOL: Suppressive effect on S1P-induced increase in [Ca2+]i, CHO-K1 cells expressing S1P3 (Fura 2-AM), IC50
# CONDITION: S1P solution 50 nmol/L, read-out: hS1P3 suppression IC50
pIC50: −log10 of the molar value.

# COMPOUND, pIC50
records = [
    ("C#Cc1ccc(NC(=NNc2ccc(Br)cc2)C(=O)C(C)(C)C)cc1 [Compound 78]", 6.01),
    ("CC(C)(C)C(=O)C(=NNc1ccc(Br)cc1)Nc1ccc(F)cc1 [Compound 74]", 5.63),
    ("O=C(C(=NNc1ccc(Cl)cc1)Nc1ccc(Cl)cc1)c1cccs1 [Compound 125]", 5.08),
    ("Cc1ccc(NN=C(Nc2ccc(Cl)c(Cl)c2)C(=O)C(C)(C)C)cc1 [Compound 65]", 6.17),
    ("O=C(C(=NNc1ccc(Cl)cc1)Nc1cc(F)cc(F)c1)N1CCCCC1 [Compound 25]", 4.93),
]
